Target: T1, serum purified human Complement Factor D (human, UniProt P00746 26-253)
T1 construct: Serum purified protein flowed over the captured antibodies; also called CFD; human CFD
T1 sequence (P00746 26-253): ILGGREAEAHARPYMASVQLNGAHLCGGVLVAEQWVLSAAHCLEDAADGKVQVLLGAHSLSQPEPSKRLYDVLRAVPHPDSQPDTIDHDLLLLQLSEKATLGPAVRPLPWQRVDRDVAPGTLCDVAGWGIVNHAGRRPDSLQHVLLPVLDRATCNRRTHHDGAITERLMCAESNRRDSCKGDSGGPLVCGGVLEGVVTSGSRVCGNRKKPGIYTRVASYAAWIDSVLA
Assay: SPR Biacore, antibody on protein A chip, single cycle kinetics, 25 C;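 note: antibodies captured to roughly 70 RU on the protein A surface in HBS-EP+ running buffer, with kinetic constants derived by BIAevaluation fitting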

binder	koff (s⁻¹)
48V54V59D / 32W60W101V (antibody, V domains shown, KCD119 TAF variant; full antibody captured on protein A) VH: EVQLVESGGGLVQPGGSLRLSCAASGYTFTDYYMNWVRQAPGKGLEWVGDINPVTGDTDYNADFKRRFTFSLDTSKSTAYLQMNSLRAEDTAVYYCTREGPSFAYWGQGTLVTVSS VL: DIQLTQSPSSLSASVGDRVTITCRSSQTIVHWNGDTYLEWYQQKPGKAPNLLIYKVSNRWSGVPSRFSGSGSGTDFTLTISSLQPEDFATYYCFQGSHVPVTFGQGTKVEIK	9.5e-05
54V56V / 101V (antibody, V domains shown, KCD119 TAF variant; full antibody captured on protein A) VH: EVQLVESGGGLVQPGGSLRLSCAASGYTFTDYYMNWVRQAPGKGLEWIGDINPVTVDTSYNADFKRRFTFSLDTSKSTAYLQMNSLRAEDTAVYYCTREGPSFAYWGQGTLVTVSS VL: DIQLTQSPSSLSASVGDRVTITCRSSQTIVHSNGDTYLEWYQQKPGKAPNLLIYKVSNRFSGVPSRFSGSGSGTDFTLTISSLQPEDFATYYCFQGSHVPVTFGQGTKVEIK	0.000351
54I59D / 54G101V (antibody, V domains shown, KCD119 TAF variant; full antibody captured on protein A; also called 54I59D / 4G101V 5) VH: EVQLVESGGGLVQPGGSLRLSCAASGYTFTDYYMNWVRQAPGKGLEWIGDINPITGDTDYNADFKRRFTFSLDTSKSTAYLQMNSLRAEDTAVYYCTREGPSFAYWGQGTLVTVSS VL: DIQLTQSPSSLSASVGDRVTITCRSSQTIVHSNGDTYLEWYQQKPGKAPNLLIGKVSNRFSGVPSRFSGSGSGTDFTLTISSLQPEDFATYYCFQGSHVPVTFGQGTKVEIK	9.56e-05
